Where these numbers come from: ChEMBL document CHEMBL1212913

organism: Rattus norvegicus; assay: Selectivity ratio of IC50 for rat recombinant NR1-NR2A receptor to IC50 for rat recombinant NR1-NR2D receptor
property: Ratio IC50
Lab note: write the figure by itself, no unit.

- chem-smiles: "O=c1c2cc(I)ccc2nc(/C=C/c2cccnc2)n1-c1ccccc1"
  Ratio IC50: 1
- chem-smiles: "COc1cccc(-n2c(/C=C/c3cccnc3)nc3ccc(I)cc3c2=O)c1"
  Ratio IC50: 1
- chem-smiles: "COc1ccc(/C=C/c2nc3ccccc3c(=O)n2-c2ccc(C(=O)O)cc2)cc1"
  Ratio IC50: 3
- chem-smiles: "O=C(O)c1ccc(-n2c(/C=C/c3cccc([N+](=O)[O-])c3)nc3ccc(/C=C/c4ccccc4)cc3c2=O)cc1"
  Ratio IC50: 5
- chem-smiles: "Cc1ccc2nc(/C=C/c3ccccc3)n(-c3ccc(C(=O)O)cc3)c(=O)c2c1"
  Ratio IC50: 2
- chem-smiles: "O=C(O)c1ccc(-n2c(/C=C/c3ccc(OC(F)F)cc3)nc3ccccc3c2=O)cc1"
  Ratio IC50: 3
- chem-smiles: "O=C(O)c1ccc(-n2c(/C=C/c3cccc([N+](=O)[O-])c3)nc3cc4c(cc3c2=O)OCCO4)cc1"
  Ratio IC50: 1

Continue with the compound presented below.
query: Suppose we examine the compound COc1ccccc1-n1c(/C=C/c2cccnc2)nc2ccc(I)cc2c1=O ; what Ratio IC50 value has been reported?
result: 10

====

molecular target: Glutamate receptor 1 (Rattus norvegicus, UniProt P19490); experiment: Antagonist activity at rat recombinant GLuR1 expressed in Xenopus oocytes assessed as inhibition of glutamate-induced current by two-electrode voltage-clamp electrophysiology; format: functional, cell-based, Oocyte
Sequence (P19490 whole entry): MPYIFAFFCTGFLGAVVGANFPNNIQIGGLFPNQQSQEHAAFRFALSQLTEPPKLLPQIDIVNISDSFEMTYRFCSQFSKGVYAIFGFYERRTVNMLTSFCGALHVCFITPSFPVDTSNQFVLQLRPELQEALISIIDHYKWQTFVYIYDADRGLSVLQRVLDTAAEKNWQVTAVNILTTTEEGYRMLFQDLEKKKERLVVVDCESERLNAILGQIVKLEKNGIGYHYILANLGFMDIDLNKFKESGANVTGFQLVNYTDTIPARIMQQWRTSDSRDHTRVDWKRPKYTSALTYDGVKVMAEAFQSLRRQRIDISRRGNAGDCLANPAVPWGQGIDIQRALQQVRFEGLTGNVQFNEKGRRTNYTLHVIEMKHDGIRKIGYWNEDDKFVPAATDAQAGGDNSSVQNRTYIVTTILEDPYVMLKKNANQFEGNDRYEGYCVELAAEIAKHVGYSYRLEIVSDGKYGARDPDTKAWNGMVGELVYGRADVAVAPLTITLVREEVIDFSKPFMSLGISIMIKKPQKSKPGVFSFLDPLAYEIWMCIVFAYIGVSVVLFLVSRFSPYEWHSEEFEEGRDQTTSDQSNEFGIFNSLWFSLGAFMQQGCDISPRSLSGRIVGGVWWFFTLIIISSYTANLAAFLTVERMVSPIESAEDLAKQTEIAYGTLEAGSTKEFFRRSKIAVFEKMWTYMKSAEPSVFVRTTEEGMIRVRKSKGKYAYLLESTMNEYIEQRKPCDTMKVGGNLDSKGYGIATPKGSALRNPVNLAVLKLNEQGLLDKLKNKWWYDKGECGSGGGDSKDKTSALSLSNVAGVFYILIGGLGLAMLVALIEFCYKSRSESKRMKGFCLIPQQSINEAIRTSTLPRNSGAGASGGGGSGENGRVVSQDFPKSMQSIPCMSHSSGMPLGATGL
pIC50: −log10 of the molar value.
Examples of molecules with documented pIC50 follow.

Some solved entries appear below for comparison.
- chem-smiles: "O=C(O)c1cccc(-n2c(/C=C/c3ccc([N+](=O)[O-])cc3)nc3ccc(I)cc3c2=O)c1"
  pIC50: "< 3.52"
- chem-smiles: "COc1ccc(-n2c(/C=C/c3ccccc3[N+](=O)[O-])nc3ccccc3c2=O)cc1"
  pIC50: 3.65
- chem-smiles: "COc1ccc(/C=C/c2nc3ccccc3c(=O)n2-c2ccc(C(=O)O)cc2)cc1"
  pIC50: 3.60

Turning now to a further record.
query: Look up pIC50 with Glutamate receptor 1 (Rattus norvegicus, UniProt P19490) for this molecule: COc1cccc(/C=C/c2nc3ccccc3c(=O)n2-c2ccc(C(=O)O)cc2)c1
result: 4.57

====

organism: Rattus norvegicus; test: Selectivity ratio of IC50 for rat recombinant NR1-NR2A receptor to IC50 for rat recombinant NR1-NR2D receptor
Labels assigned by Ratio IC50 range: low class = under 4, middle class = from 4 up to 8, high class = 8 and over

Please review the entries below; each comes with its answer.
- chem-smiles: "O=C(O)c1cccc(-n2c(/C=C/c3cccnc3)nc3ccc(I)cc3c2=O)c1"
  answer-label: "high class"
- chem-smiles: "O=c1c2cc(I)ccc2nc(/C=C/c2cccnc2)n1-c1ccccc1[N+](=O)[O-]"
  answer-label: "high class"
- chem-smiles: "O=C(O)c1ccc(-n2c(/C=C/c3cccc([N+](=O)[O-])c3)nc3ccc(Br)cc3c2=O)cc1"
  answer-label: "high class"
- chem-smiles: "O=C(O)c1ccc(-n2c(/C=C/c3cccc([N+](=O)[O-])c3)nc3ccc(F)cc3c2=O)cc1"
  answer-label: "middle class"

query: Which Ratio IC50 band matches Cc1ccccc1/C=C/c1nc2ccccc2c(=O)n1-c1ccc(C(=O)O)cc1 ?
result: low class

query: Form field 'band' for O=C(O)c1ccc(-n2c(/C=C/c3cccc(C(F)(F)F)c3)nc3ccccc3c2=O)cc1
result: low class

query: Returns: class label. Input: Cc1ccc(/C=C/c2nc3ccccc3c(=O)n2-c2ccc(C(=O)O)cc2)cc1
result: low class

query: Could you tell me which band O=C(O)c1ccc(-n2c(/C=C/c3cccc([N+](=O)[O-])c3)nc3c(Cl)cc(Cl)cc3c2=O)cc1 belongs to?
result: high class

query: Textbook exercise: identify the category of the compound given here, COc1ccc2nc(/C=C/c3ccc([N+](=O)[O-])cc3)n(-c3cccc(C(=O)O)c3)c(=O)c2c1 , according to its measured value.
result: high class

query: For O=C(O)c1ccc(-n2c(/C=C/c3ccc([N+](=O)[O-])cc3)nc3ccc(I)cc3c2=O)cc1 , which Ratio IC50 bin applies?
result: high class

query: Which class does Cc1ccc2nc(/C=C/c3cccc([N+](=O)[O-])c3)n(-c3ccc(C(=O)O)cc3)c(=O)c2c1 fall in?
result: middle class

query: # bin label for O=C(O)c1ccc(-n2c(/C=C/c3cccc([N+](=O)[O-])c3)nc3cc4ccccc4cc3c2=O)cc1
result: middle class

query: Class for O=C(O)c1ccc(-n2c(/C=C/c3cccnc3)nc3ccc(I)cc3c2=O)cc1 ?
result: middle class

query: Assign a category based on measured Ratio IC50 for O=C(O)c1ccc(-n2c(/C=C/c3ccccc3O)nc3ccccc3c2=O)cc1 and give only the class name.
result: low class

query: Would you mind sorting O=C(O)c1ccc(-n2c(/C=C/c3cccc([N+](=O)[O-])c3)nc3c(Cl)cccc3c2=O)cc1 into the appropriate category?
result: middle class

query: Would you mind sorting CSc1ccc(/C=C/c2nc3ccccc3c(=O)n2-c2ccc(C(=O)O)cc2)cc1 into the appropriate category?
result: high class

query: Band for COc1ccc2cc(/C=C/c3nc4ccccc4c(=O)n3-c3ccc(C(=O)O)cc3)ccc2c1 ?
result: middle class

query: Band of N#Cc1ccc(/C=C/c2nc3ccccc3c(=O)n2-c2ccc(C(=O)O)cc2)cc1 ?
result: low class

query: State the class of the compound shown: Cc1cccc(/C=C/c2nc3ccccc3c(=O)n2-c2ccc(C(=O)O)cc2)c1
result: low class

query: Would you mind sorting O=C(O)c1ccc(-n2c(/C=C/c3ccccc3)nc3ccc(I)cc3c2=O)cc1 into the appropriate category?
result: high class

query: Field: class (Ratio IC50) — entry: CC(C)c1ccc2nc(/C=C/c3cccc([N+](=O)[O-])c3)n(-c3ccc(C(=O)O)cc3)c(=O)c2c1
result: high class

query: Exercise: read the entry O=C(O)c1ccc(-n2c(/C=C/c3ccccc3)nc3ccccc3c2=O)cc1 and state which class it falls under.
result: low class

query: Exam item: assign O=C(O)c1ccc(-n2c(/C=C/c3cccc([N+](=O)[O-])c3)nc3ccc(O)cc3c2=O)cc1 to the correct category.
result: high class

====

// IC50 lookup, one value per entry
target: Ionotropic glutamate receptor NMDA 1/2D (Rattus norvegicus, UniProt P35439+Q62645); assay: Antagonist activity at rat recombinant NR1-NR2D receptor expressed in Xenopus oocytes at holding potential of -40mV by two-electrode voltage-clamp electrophysiology
Sequence (Q62645 whole entry, other chains not shown): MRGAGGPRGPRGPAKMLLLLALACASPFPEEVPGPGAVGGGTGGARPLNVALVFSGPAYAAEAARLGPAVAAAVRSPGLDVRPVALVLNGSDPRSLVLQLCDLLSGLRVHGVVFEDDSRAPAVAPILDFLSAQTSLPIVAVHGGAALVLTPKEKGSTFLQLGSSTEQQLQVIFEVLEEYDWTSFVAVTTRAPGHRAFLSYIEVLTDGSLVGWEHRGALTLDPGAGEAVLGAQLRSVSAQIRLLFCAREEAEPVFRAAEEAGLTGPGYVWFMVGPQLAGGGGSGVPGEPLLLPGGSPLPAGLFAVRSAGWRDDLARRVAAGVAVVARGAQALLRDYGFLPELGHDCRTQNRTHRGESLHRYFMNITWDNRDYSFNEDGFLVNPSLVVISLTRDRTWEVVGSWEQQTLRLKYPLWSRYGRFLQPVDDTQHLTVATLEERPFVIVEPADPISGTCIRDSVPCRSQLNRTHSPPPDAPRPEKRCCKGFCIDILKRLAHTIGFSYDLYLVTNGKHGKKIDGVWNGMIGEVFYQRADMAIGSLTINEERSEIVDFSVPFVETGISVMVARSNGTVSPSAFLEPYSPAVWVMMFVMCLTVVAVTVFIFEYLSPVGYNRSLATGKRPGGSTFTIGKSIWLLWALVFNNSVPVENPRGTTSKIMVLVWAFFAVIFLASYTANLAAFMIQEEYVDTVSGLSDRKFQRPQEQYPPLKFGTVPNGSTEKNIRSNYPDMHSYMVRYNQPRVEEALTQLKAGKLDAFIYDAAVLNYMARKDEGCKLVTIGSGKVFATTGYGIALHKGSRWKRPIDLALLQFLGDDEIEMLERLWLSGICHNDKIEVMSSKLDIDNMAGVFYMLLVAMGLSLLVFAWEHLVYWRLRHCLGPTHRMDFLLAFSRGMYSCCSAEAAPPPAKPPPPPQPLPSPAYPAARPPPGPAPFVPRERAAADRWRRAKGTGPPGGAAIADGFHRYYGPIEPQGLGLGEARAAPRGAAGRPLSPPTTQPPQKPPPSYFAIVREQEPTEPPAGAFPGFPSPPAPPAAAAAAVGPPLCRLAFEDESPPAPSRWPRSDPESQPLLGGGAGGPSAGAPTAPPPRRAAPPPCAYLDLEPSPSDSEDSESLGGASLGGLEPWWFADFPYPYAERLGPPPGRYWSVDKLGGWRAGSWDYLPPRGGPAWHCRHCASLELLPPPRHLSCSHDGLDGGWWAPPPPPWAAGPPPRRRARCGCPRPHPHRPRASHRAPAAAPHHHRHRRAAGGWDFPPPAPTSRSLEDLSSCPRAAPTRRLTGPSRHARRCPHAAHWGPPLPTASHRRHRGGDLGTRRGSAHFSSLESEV
Report the figure in µM without appending any unit label.

- chem-smiles: "CC(C)c1ccc2nc(/C=C/c3cccc([N+](=O)[O-])c3)n(-c3ccc(C(=O)O)cc3)c(=O)c2c1"
  units: "µM"
  IC50: 7
- chem-smiles: "O=C(O)c1ccc(-n2c(/C=C/c3cccc([N+](=O)[O-])c3)nc3cc4c(cc3c2=O)OCCO4)cc1"
  units: "µM"
  IC50: 213
- chem-smiles: "O=C(O)c1ccc(-n2c(/C=C/c3ccccc3)nc3ccc(I)cc3c2=O)cc1"
  units: "µM"
  IC50: 4

query: Give the reported IC50 for COc1cccc(-n2c(/C=C/c3cccc([N+](=O)[O-])c3)nc3ccccc3c2=O)c1 (system: Ionotropic glutamate receptor NMDA 1/2D (Rattus norvegicus, UniProt P35439+Q62645)).
result: 186

====

species: Rattus norvegicus; assay: Selectivity ratio of IC50 for rat recombinant GLuR1 to IC50 for rat recombinant NR1-NR2D receptor
property: Ratio IC50

In the examples that follow, each entry is paired with its recorded Ratio IC50.
- chem-smiles: "O=C(O)c1ccc(-n2c(/C=C/c3cccc([N+](=O)[O-])c3)nc3ccc(F)cc3c2=O)cc1"
  Ratio IC50: 1
- chem-smiles: "COC(=O)c1cccc(/C=C/c2nc3ccc(OC)cc3c(=O)n2-c2ccc(C(=O)O)cc2)c1"
  Ratio IC50: 7
- chem-smiles: "COc1cccc(-n2c(/C=C/c3cccc([N+](=O)[O-])c3)nc3ccccc3c2=O)c1"
  Ratio IC50: 2
- chem-smiles: "Cc1cccc(-n2c(/C=C/c3cccnc3)nc3ccc(I)cc3c2=O)c1"
  Ratio IC50: 1
- chem-smiles: "O=C(O)c1ccc(-n2c(/C=C/c3cccc([N+](=O)[O-])c3)nc3cc(Cl)ccc3c2=O)cc1"
  Ratio IC50: 3

query: Tell me the measured Ratio IC50 of O=C(O)COc1ccc(/C=C/c2nc3ccccc3c(=O)n2-c2ccc(C(=O)O)cc2)cc1 , please.
result: 1

query: Which Ratio IC50 reading was recorded for the compound COc1ccccc1-n1c(/C=C/c2cccnc2)nc2ccc(I)cc2c1=O ?
result: 66

====

target: Glutamate NMDA receptor; Grin1/Grin2a (Rattus norvegicus, UniProt P35439+Q00959); assay: Antagonist activity at rat recombinant NR1-NR2A receptor expressed in Xenopus oocytes at holding potential of -40mV by two-electrode voltage-clamp electrophysiology; format: functional, cell-based, Oocyte; conditions: read-out: IC50
Sequence (Q00959 whole entry, other chains not shown): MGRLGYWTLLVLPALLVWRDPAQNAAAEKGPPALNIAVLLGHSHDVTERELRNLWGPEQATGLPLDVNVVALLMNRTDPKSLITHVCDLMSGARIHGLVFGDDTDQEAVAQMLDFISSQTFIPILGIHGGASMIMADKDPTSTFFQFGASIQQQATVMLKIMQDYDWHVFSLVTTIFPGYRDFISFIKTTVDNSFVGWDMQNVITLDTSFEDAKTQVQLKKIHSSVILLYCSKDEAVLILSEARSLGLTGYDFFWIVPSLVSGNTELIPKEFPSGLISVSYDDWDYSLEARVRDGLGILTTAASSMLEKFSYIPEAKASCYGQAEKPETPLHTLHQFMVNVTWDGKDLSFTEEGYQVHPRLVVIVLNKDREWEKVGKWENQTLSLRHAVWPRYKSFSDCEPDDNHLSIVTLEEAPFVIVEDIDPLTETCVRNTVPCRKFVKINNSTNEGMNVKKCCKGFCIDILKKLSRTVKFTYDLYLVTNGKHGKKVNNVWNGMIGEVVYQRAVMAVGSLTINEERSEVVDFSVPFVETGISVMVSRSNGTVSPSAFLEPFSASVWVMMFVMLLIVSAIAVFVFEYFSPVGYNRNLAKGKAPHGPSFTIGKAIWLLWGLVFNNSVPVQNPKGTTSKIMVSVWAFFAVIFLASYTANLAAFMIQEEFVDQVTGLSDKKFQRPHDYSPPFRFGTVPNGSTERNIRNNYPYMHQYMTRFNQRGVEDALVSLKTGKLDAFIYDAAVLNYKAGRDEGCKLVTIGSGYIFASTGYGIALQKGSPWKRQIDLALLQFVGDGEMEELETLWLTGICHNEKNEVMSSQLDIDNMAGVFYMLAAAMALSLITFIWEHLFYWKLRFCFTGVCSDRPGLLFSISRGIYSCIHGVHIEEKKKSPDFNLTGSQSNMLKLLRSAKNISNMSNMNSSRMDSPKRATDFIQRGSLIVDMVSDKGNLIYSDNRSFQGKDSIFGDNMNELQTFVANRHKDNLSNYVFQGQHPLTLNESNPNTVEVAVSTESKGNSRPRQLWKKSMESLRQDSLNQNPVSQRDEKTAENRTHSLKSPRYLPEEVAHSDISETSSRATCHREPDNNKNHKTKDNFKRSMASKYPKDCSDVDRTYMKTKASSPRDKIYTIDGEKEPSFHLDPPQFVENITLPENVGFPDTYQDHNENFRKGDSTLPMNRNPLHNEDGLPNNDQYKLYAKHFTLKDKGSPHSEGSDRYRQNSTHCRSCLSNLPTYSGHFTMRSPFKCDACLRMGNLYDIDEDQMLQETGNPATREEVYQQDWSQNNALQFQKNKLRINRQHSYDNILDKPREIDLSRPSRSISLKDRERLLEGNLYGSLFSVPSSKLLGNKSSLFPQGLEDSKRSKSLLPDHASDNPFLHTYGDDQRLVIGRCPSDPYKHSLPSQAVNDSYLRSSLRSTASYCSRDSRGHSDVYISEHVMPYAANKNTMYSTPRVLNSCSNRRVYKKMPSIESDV
property: IC50 (µM)
A number alone suffices; assume µM.

- chem-smiles: "O=C(O)c1ccc(-n2c(/C=C/c3cccc([N+](=O)[O-])c3)nc3ccc(F)cc3c2=O)cc1"
  IC50 / µM: 36
- chem-smiles: "O=C(O)c1ccc(-n2c(/C=C/c3ccc([N+](=O)[O-])cc3)nc3ccccc3c2=O)cc1"
  IC50 / µM: 64
- chem-smiles: "O=C(O)c1ccc(-n2c(/C=C/c3cccc([N+](=O)[O-])c3)nc3ccc(-c4cccs4)cc3c2=O)cc1"
  IC50 / µM: 157

query: Quick check: IC50 on Glutamate NMDA receptor; Grin1/Grin2a (Rattus norvegicus, UniProt P35439+Q00959), item COc1ccc2cc(/C=C/c3nc4ccccc4c(=O)n3-c3ccc(C(=O)O)cc3)ccc2c1 ?
result: 63

query: Give IC50 (Glutamate NMDA receptor; Grin1/Grin2a (Rattus norvegicus, UniProt P35439+Q00959)) of the following compound: O=C(O)c1cccc(-n2c(/C=C/c3cccnc3)nc3ccc(I)cc3c2=O)c1
result: 45

query: IC50 of O=C(O)c1cccc(-n2c(/C=C/c3cccc([N+](=O)[O-])c3)nc3ccccc3c2=O)c1 on Glutamate NMDA receptor; Grin1/Grin2a (Rattus norvegicus, UniProt P35439+Q00959)?
result: 100

query: Value wanted: IC50 (Glutamate NMDA receptor; Grin1/Grin2a (Rattus norvegicus, UniProt P35439+Q00959)) of entry Cc1ccc(/C=C/c2nc3ccccc3c(=O)n2-c2ccc(C(=O)O)cc2)cc1
result: 41

query: Param readout = IC50; param system = Glutamate NMDA receptor; Grin1/Grin2a (Rattus norvegicus, UniProt P35439+Q00959); param query = O=C(O)c1ccc(-n2c(/C=C/c3cccc([N+](=O)[O-])c3)nc3ccc(I)cc3c2=O)cc1 ; response: value
result: 18
